Data provenance is patent US20240374738A1.

Target: DDR1 (Homo sapiens)
Sequence (Q08345 19-913): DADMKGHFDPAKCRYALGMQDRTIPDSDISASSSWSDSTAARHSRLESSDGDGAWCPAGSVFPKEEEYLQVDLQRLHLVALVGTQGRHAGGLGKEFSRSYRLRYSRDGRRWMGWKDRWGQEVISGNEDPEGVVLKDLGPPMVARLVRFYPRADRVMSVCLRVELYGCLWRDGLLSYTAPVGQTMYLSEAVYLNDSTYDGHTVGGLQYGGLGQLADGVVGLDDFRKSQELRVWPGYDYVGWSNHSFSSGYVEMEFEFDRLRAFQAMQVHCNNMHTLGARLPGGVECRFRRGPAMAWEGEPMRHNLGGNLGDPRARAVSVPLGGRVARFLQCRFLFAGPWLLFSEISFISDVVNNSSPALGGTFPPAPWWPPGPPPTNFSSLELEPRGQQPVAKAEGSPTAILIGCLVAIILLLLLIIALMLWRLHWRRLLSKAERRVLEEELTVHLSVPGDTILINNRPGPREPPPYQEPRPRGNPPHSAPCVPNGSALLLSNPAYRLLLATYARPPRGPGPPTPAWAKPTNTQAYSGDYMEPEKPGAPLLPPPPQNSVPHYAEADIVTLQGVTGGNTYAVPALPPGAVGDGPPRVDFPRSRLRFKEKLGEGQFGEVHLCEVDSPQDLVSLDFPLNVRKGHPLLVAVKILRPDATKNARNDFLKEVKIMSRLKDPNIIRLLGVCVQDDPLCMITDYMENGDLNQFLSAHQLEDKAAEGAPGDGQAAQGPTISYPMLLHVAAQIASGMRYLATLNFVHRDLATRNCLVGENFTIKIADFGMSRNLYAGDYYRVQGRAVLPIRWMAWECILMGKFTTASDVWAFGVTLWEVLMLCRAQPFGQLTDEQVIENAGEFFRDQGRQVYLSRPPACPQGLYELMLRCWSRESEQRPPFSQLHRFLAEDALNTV
Assay: Degradation of DDR1 in tumor cell MKN45 (Western blot)
Type: cell-based
Parameters: The degradation activity of the compounds against DDR1 in the MKN45 cell line; endogenous in cells; host or cells: MKN45
Conditions: MKN-45, maximum degradation percentage, MKN45 cells, 24 hours
Readings of Dmax for the listed compounds
measured-attribute: Dmax

[[record]]
compound = "COc1cc2c(Oc3ccc(NC(=O)C4(C(=O)Nc5ccc(F)cc5)CC4)cc3)ccnc2cc1-c1cnn(C2CCN(C(=O)CCCCC(=O)N[C@H](C(=O)N3C[C@H](O)C[C@H]3C(=O)NCc3ccc(-c4scnc4C)cc3)C(C)(C)C)CC2)c1"
endpoint_result = "75 to 85%"

[[record]]
compound = "COc1cc2c(Oc3ccc(NC(=O)C4(C(=O)Nc5ccc(F)cc5)CC4)cc3)ccnc2cc1N1CCC(CN2CCC(OCC(=O)N[C@H](C(=O)N3C[C@H](O)C[C@H]3C(=O)NCc3ccc(-c4scnc4C)cc3)C(C)(C)C)CC2)CC1"
endpoint_result = "75 to 85%"

[[record]]
compound = "COc1cc2c(Oc3ccc(NC(=O)C4(C(=O)Nc5ccc(F)cc5)CC4)cc3)ccnc2cc1N1CCC(CN2CC3CC(C2)N3CCCNc2cc3c(cn2)C(=O)N(C2CCC(=O)NC2=O)C3)CC1 (centres unmarked)"
endpoint_result = "65 to 75%"

[[record]]
compound = "COc1cc2c(Oc3ccc(NC(=O)C4(C(=O)Nc5ccc(F)cc5)CC4)cc3)ccnc2cc1N1CCC(CN2C3CC2CN(CCC#Cc2ccc4c(c2)CN(C2CCC(=O)NC2=O)C4=O)C3)CC1 (centres unmarked)"
endpoint_result = "75 to 85%"

[[record]]
compound = "O=C1CCC(N2Cc3cc(NC(=O)CCN4CC5CC(C4)N5CC4CCN(c5cc6nccc(Oc7ccc(NC(=O)C8(C(=O)Nc9ccc(F)cc9)CC8)cc7)c6cc5OC(F)(F)F)CC4)ncc3C2=O)C(=O)N1 (centres unmarked)"
endpoint_result = "65 to 75%"

[[record]]
compound = "COc1cc2c(Oc3ccc(NC(=O)C4(C(=O)Nc5ccc(F)cc5)CC4)cc3)ccnc2cc1N1CCC(CN2C3CC2CN(CCNc2cc4c(cn2)C(=O)N(C2CCC(=O)NC2=O)C4)C3)CC1 (centres unmarked)"
endpoint_result = "75 to 85%"

[[record]]
compound = "CNC(=O)c1ccc(-c2cnc3ncc(Cc4ccc5ncc(NC(=O)CN6CCC(CN7CCN(c8ccc9c(c8)C(=O)N(C8CCC(=O)NC8=O)C9=O)CC7)CC6)cc5c4)n3n2)cc1F (centres unmarked)"
endpoint_result = "65 to 75%"

[[record]]
compound = "COc1cc2c(Oc3ccc(NC(=O)C4(C(=O)Nc5ccc(F)cc5)CC4)cc3)ccnc2cc1COCCN1CCC(OCCCNc2ccc3c(c2)C(=O)N(C2CCC(=O)NC2=O)C3=O)CC1 (centres unmarked)"
endpoint_result = "> 85%"

